system: Sheep red blood cells (SRBC); assay: Humoral immunity (SRBC hemolysis index) of mice bearing transplanted B16 melanoma; format: in vivo, C57BL/6 mice; set-up: key: index = (OD540 sample ÷ reference OD540) × 500; conditions: dose 5 μg/kg, saline 19.0 ± 9.1
Marks after values point to notes of the source that are not given here. Ends that are not written are not given here.
Each entry below carries its recorded Hemolysis index.

Example cases with answers are listed next.
Query FNFVPP [CMS003] yields Hemolysis index of 37.2 ± 15.9*^$

The substance identified as VAPEEHPTLLTEAPLNPK [CMS010] registered its Hemolysis index at 51.0 ± 14.6*^$

Reported Hemolysis index for PTTKTYFPHF [CMS001] was 41.3 ± 17.7*^$

The substance listed as KAVGHLDDLPGAL [CMS008] shows Hemolysis index equal to 38.9 ± 12.0*^$

Field: next substance
Form: substance = VGMGQKDSY ; Hemolysis index = 35.4 ± 15.1*^$

###

# maps each entry to its X ± SD (phagocytotic index)
test system: mononuclear phagocyte; experiment: Carbon particle clearance test, phagocytosis function; assay type: in vivo, BALB/c mice; set-up: key: α = cube root of K × (body weight ÷ liver+spleen weight); conditions: healthy mice; peptide 5 μg/kg/day i.p. 15 days (IFN-γ, IL-2 3×10^5 IU/kg/day); saline 5.1 ± 0.6
Ends that are not written are not given here.
Lab note: jot the number down without any unit.

Field: example entries. Status: answers known.
Sure, the documented X ± SD (phagocytotic index) for LRVAPQEHPVL [CMS013] is 6.7

According to the records, this substance KAVGHLDDLPGAL [CMS008] displays X ± SD (phagocytotic index) of 6.4

Now turn to the next substance.
The reported value for RVAPQQHPTL [CMS011] in terms of X ± SD (phagocytotic index) is 6.4

###

tested on: thymus gland; test: Immunity organ weight test, thymus gland index; format: in vivo, BALB/c mice; conditions: healthy mice; peptide 500 μg/kg/day i.p. 15 days (IFN-γ, IL-2 3×10^5 IU/kg/day); saline 0.12 ± 0.02
Ends that are not written are not given here.
experimental-readout: weight of thymus gland (thymus gland index), X ± SD (%)
# output: bare number, implied unit %

The following substances have reported results that may help.
Input VGMGQKDSYV [CMS020] . Output weight of thymus gland (thymus gland index), X ± SD (%): 0.19

Field weight of thymus gland (thymus gland index), X ± SD (%) (entry VGMGQKDSY ) reads 0.19

---
Summary for this substance, VAPEEHPTLLTEAPLNPK [CMS010] : weight of thymus gland (thymus gland index), X ± SD (%) is 0.19

Looking up IGMESAGIHETTY [CMS016] , I see its weight of thymus gland (thymus gland index), X ± SD (%) listed as 0.18

###

system: NK cell; test: NK cell cytotoxicity activity test (spleen cells of treated mice against YAC-1 target cells, MTT); type: in vivo, BALB/c mice; conditions: healthy mice; peptide 5 μg/kg/day i.p. 15 days (IFN-γ, IL-2 3×10^5 IU/kg/day); saline 60 ± 9
Ends that are not written are not given here.
experimental-readout: NK cell cytotoxic activity, X ± SD (%)
Give the number; % is assumed, so skip it.

Recorded NK cell cytotoxic activity, X ± SD (%) (sequence LGMQACGIHETTY [CMS012] ): 85

Field NK cell cytotoxic activity, X ± SD (%) (entry VGMGQKDSYV [CMS020] ) reads 91

Entry under test: RVAPQQHPTL [CMS011] . Its NK cell cytotoxic activity, X ± SD (%) was 76

Continuing:
Recorded result, VAPEEHPTLLTEAPLNPK [CMS010] , NK cell cytotoxic activity, X ± SD (%): 82

###

System: spleen
Experiment: Immunity organ weight test, spleen index
Format: in vivo, BALB/c mice
Settings: statistically significant difference from saline in any of the dosage groups 0.5-500 μg/kg/day
Experimental: One day after the last test substance administration (day 16), the liver, spleen, and thymus gland were separated and blotted dry with filter paper and weighed. The phagocytosis index α was calculated as below: α=(^3√{square root over ( )}K)(W÷WLS) Spleen index (%)=(spleen weight/body weight)×100%
Ends that are not written are not given here.
experimental-readout: effect on the weight of the spleen (summary)

Example substances with recorded effect on the weight of the spleen (summary):
effect on the weight of the spleen (summary) measured on KAVGHLDDLPGAL [CMS008] = decrease

Notebook: VGMGQKDSYV [CMS020] , effect on the weight of the spleen (summary) read as increase

Per the records, this substance ( VAPEEHPTLLTEAPLNPK [CMS010] ) has effect on the weight of the spleen (summary) equal to decrease

Input LRVAPQEHPVL [CMS013] . Output effect on the weight of the spleen (summary): decrease

From here, focus on the item given below.
Entry VGMGQKDSY ; effect on the weight of the spleen (summary) = increase

###

Overview of reported activity of T lymphocyte in secreting IFN, X ± SD (IU) across a group of substances:
test system: interferon (IFN); set-up: species or system BALB/c mice; details: mouse, in vivo, ip
Ends that are not written are not given here.
Give just the number in IU; leave the unit off.

Answered cases to consult:
// field: activity of T lymphocyte in secreting IFN, X ± SD (IU); key: PTTKTYFPHF [CMS001] ; value = 110

Measured activity of T lymphocyte in secreting IFN, X ± SD (IU) of FNFVPP [CMS003] : 106

Documented activity of T lymphocyte in secreting IFN, X ± SD (IU) of RVAPQQHPTL [CMS011] : 89

Further cases:
activity of T lymphocyte in secreting IFN, X ± SD (IU) measured on LGMQACGIHETTY [CMS012] = 86

###

test system: anti-SRBC antibody; experiment: Sheep Red Blood Cell (SRBC) hemolysis test, antibody formation; type: in vivo, BALB/c mice; conditions: healthy mice; peptide 5 μg/kg/day i.p. 15 days, SRBC day 12 (IFN-γ, IL-2 3×10^5 IU/kg/day); saline 32 ± 7
Marks after values point to notes of the source that are not given here. Ends that are not written are not given here.
anti-SRBC antibody formation, X ± SD (Unit) values by entry

Worked examples follow.
Entry under test: IGMESAGIHETTY [CMS016] . Its anti-SRBC antibody formation, X ± SD (Unit) was 93 ± 32*^@ Unit

For this substance ( Pro Ser Ile Vat Gly Arg Pro Arg His Gln Gly Val Met (PSIVGRPRHQGVM; listed as Sus scrofa) [CMS015] ), measured anti-SRBC antibody formation, X ± SD (Unit) is 94 ± 37*^@ Unit

Alright, here's another substance for you.
Quick note, anti-SRBC antibody formation, X ± SD (Unit) for KAVGHLDDLPGAL [CMS008] landed at 97 ± 26*^@ Unit

###

test system: mononuclear phagocyte; experiment: Carbon particle clearance test, phagocytosis function; format: in vivo, BALB/c mice; parameters: key: α = cube root of K × (body weight ÷ liver+spleen weight); details: healthy mice; peptide 5 μg/kg/day i.p. 15 days (IFN-γ, IL-2 3×10^5 IU/kg/day); saline 5.1 ± 0.6
Marks after values point to notes of the source that are not given here. Ends that are not written are not given here.
experimental-readout: X ± SD (phagocytotic index)

The substance identified as IGMESAGIHETTY [CMS016] registered its X ± SD (phagocytotic index) at 6.9 ± 0.8*^

Given item FNFVPP [CMS003] , the value recorded as its X ± SD (phagocytotic index) is 6.9 ± 0.9*^

substance LRVAPQQHPTL [CMS009] , X ± SD (phagocytotic index) observed: 6.9 ± 0.9*^

Now look at this entry.
Recorded X ± SD (phagocytotic index) (substance VAPEEHPTLLTEAPLNPK [CMS010] ): 7.1 ± 0.7*^

###

test system: interferon (IFN); set-up: species or system BALB/c mice; details: mouse, in vivo, ip
Marks after values point to notes of the source that are not given here. Ends that are not written are not given here.
experimental-readout: activity of T lymphocyte in secreting IFN, X ± SD (IU)

Please review the following examples before continuing.
Recorded activity of T lymphocyte in secreting IFN, X ± SD (IU) (sequence LRVAPQQHPTL [CMS009] ): 121 ± 15*^ IU

activity of T lymphocyte in secreting IFN, X ± SD (IU) reading for MATAASSSSL [CMS021] : 143 ± 17*^@^ IU

Further cases:
Consider IGMESAGIHETTY [CMS016] . Its measured activity of T lymphocyte in secreting IFN, X ± SD (IU) is 162 ± 19*^@^ IU

Lookup result for LRVAPQEHPVL [CMS013] ; measured activity of T lymphocyte in secreting IFN, X ± SD (IU): 154 ± 15*^@^ IU

Reference source: patent US20060167229A1
